Recorded values, source paper PMC11062922.

- testedTarget: PRKCA (Homo sapiens, UniProt P17252)
- Construct: endogenous in cells
- measurementNotes: Kinobeads full dose-response competition binding: PRKCA
- assayConditions: Gene Name PRKCA; eight-dose curve fit, doses in nM
measurementType: EC50 (nM)
Report only the number, with the unit nM understood.

(Q) Please provide the recorded EC50 for Cc1cccc(Nc2nc(N[C@H]3CCCC[C@H]3N)ncc2C(N)=O)c1 [GSK986310C] , tested on PRKCA (Homo sapiens, UniProt P17252).
(A) 446

###

Field: CATDS. Provide a value for each of the compounds that follow.
- testedTarget: ACOX1 (Homo sapiens)
- Construct: endogenous in cells
- Sequence (Q15067 whole entry): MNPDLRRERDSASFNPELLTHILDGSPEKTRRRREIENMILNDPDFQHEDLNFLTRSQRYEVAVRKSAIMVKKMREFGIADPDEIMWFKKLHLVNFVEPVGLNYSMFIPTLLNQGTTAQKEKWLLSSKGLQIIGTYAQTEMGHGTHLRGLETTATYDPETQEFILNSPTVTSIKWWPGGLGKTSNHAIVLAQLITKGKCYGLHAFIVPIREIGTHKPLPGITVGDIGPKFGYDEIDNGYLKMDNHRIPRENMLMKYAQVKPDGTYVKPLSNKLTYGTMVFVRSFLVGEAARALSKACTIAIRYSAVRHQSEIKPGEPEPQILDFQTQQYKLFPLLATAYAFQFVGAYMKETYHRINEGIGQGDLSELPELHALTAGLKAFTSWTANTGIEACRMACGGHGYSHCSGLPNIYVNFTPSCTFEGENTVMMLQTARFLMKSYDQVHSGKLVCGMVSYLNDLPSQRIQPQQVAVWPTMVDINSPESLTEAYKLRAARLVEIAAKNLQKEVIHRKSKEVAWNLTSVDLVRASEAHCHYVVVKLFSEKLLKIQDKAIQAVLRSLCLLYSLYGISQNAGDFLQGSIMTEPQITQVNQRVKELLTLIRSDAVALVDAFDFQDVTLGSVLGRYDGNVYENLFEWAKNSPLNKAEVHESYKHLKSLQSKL
- measurementNotes: Kinobeads two-dose competition binding: ACOX1;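 further: competition of compounds with immobilized broad-spectrum kinase inhibitor beads in cell lysate at 100 and 1,000 nM, 45 min at 4 °C, bead-bound protein quantified by label-free MS versus DMSO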
- assayConditions: sheet CATDS matrix 2; Gene Name ACOX1

(Q) Form entry - test system: ACOX1 (Homo sapiens); read-out: CATDS; compound: NCCC(NC(=O)c1cc(Br)c(-c2ccnc3[nH]ccc23)s1)c1ccccc1 (centres unmarked) [GSK1307810A]
(A) 0

(Q) What do you get for COc1cc2c(cc1Nc1nc(N3CCc4ccccc43)c3cc[nH]c3n1)N(C(=O)CN(C)C)CC2 [GSK2186269A] ?
(A) 0

(Q) Similarly, COc1cc(Nc2nccc(N3CCC(NC(=O)c4cccc(NC(C)=O)c4)C3)n2)cc(OC)c1OC (centres unmarked) [GSK1379754A] ?
(A) 0

(Q) And CCc1nc(-c2cccc(N(C)S(=O)(=O)c3ccccc3)c2)c(-c2ccnc(Nc3ccc(N4CCN(C(C)=O)CC4)nc3)n2)s1 [GSK1645895A] ?
(A) 0

(Q) Moving on to CO[C@@H](C(=O)N1Cc2n[nH]c(NC(=O)c3ccc(N4CCN(C)CC4)cc3)c2C1)c1ccccc1 [Danusertib, reference compound]
(A) 0

(Q) Moving on to COc1cc2ncn(-c3cc(OCCc4ccccc4)c(C(N)=O)s3)c2cc1OC [GSK204925A]
(A) 0

(Q) Follow-up item: Cc1cccc(Nc2nc(NCCN)ncc2C(N)=O)c1 [GSK1292139B]
(A) 0

(Q) Repeat for the following compound: COc1cc2ncnc(Nc3ccc(F)c(Cl)c3)c2cc1O[C@H]1CC[C@H](N)CC1 [BIBW3133BS]
(A) 0
